testedSystem: mouse melanocortin-5 receptor (mouse, UniProt P41149 1-325)
Sequence (P41149 whole entry): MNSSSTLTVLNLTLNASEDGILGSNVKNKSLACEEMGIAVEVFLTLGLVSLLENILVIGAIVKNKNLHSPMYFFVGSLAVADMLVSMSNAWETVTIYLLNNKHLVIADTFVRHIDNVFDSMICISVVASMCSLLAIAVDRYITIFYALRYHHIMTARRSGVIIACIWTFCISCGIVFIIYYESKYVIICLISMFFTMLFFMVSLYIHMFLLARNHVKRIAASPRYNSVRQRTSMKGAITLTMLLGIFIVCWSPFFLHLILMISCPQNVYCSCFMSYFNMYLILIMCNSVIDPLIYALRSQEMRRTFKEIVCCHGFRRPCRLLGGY
testName: cell-based or functional assay
Non-standard residues stand in square brackets, D forms with d. dPhe(4-I) = N[C@H](Cc1ccc(I)cc1)C(=O)O; d2Nal = N[C@H](Cc1ccc2ccccc2c1)C(=O)O; Bta = N[C@@H](Cc1csc2ccccc12)C(=O)O; Tic = O=C(O)[C@@H]1Cc2ccccc2CN1
measuredAttribute: cAMP AlphaScreen, HEK293 cells stably expressing the receptor: agonist EC50 (nM)

binder	quantitativeResult
Ac-RR[dPhe(4-I)][d2Nal]-NH2 [Ac-Arg-Arg-(pI)DPhe-DNal(2′)-NH2]	500
RRFF (HELM PEPTIDE1{[ac].R.R.[O=C([C@@H](Cc1ccc(I)cc1)N[*:1])[*:2]].F.[am]}$$$$V2.0; SMILES CC(=O)N[C@@H](CCCNC(=N)N)C(=O)N[C@@H](CCCNC(=N)N)C(=O)N[C@H](Cc1ccc(I)cc1)C(=O)N[C@@H](Cc1ccccc1)C(N)=O) [compound 25]	340
Ac-FR[dPhe(4-I)][Tic]-NH2 [compound 22]	200
HRFX (HELM PEPTIDE1{[ac].H.R.[O=C([C@@H](Cc1ccc(I)cc1)N[*:1])[*:2]].[Tic].[am]}$$$$V2.0; SMILES CC(=O)N[C@@H](Cc1c[nH]cn1)C(=O)N[C@@H](CCCNC(=N)N)C(=O)N[C@H](Cc1ccc(I)cc1)C(=O)N1Cc2ccccc2C[C@H]1C(N)=O) [Ac-His-Arg-(pI)DPhe-Tic-NH2]	17
Ac-HR[dPhe(4-I)][Bta]-NH2 [compound 11]	270
Ac-[d2Nal]R[dPhe(4-I)][Tic]-NH2 [compound 24]	250
Ac-FR[dPhe(4-I)][Bta]-NH2 [compound 15]	1300
Ac-RR[dPhe(4-I)][Bta]-NH2 [compound 10]	210
RRFX (HELM PEPTIDE1{[ac].R.R.[O=C([C@@H](Cc1ccc(I)cc1)N[*:1])[*:2]].[Tic].[am]}$$$$V2.0; SMILES CC(=O)N[C@@H](CCCNC(=N)N)C(=O)N[C@@H](CCCNC(=N)N)C(=O)N[C@H](Cc1ccc(I)cc1)C(=O)N1Cc2ccccc2C[C@H]1C(N)=O) [Ac-Arg-Arg-(pI)DPhe-Tic-NH2]	8.8
Ac-H[dF]RW-NH2 [Ac-His-DPhe-Arg-Trp-NH2]	3
